# Target Or Test System: Amine oxidase [flavin-containing] B (Homo sapiens)
# Sequence (P27338 whole entry): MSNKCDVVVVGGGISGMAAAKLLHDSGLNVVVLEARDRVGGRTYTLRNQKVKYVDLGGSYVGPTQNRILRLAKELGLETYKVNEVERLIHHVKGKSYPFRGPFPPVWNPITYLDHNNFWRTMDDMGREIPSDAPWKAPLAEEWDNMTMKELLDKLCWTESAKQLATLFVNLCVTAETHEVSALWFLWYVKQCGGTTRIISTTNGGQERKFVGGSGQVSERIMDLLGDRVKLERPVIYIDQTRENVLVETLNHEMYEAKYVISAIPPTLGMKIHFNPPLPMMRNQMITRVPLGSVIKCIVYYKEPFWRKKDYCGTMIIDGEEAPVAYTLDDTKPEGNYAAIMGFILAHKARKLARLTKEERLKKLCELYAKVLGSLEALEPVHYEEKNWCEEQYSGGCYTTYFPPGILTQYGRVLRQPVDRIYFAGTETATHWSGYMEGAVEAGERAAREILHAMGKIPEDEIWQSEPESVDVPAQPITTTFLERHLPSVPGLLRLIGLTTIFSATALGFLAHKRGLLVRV
# Procedure Text: Inhibition of recombinant human MAO-B using tyramine hydrochloride as substrate preincubated for 5 mins followed by substrate addition and measured after 5 mins in presence of horse radish peroxidase by Ampliflu Red based fluorescence microplate reader
Measured Attribute: pIC50
Recall that pIC50 is obtained by taking minus log10 of the concentration measured in molar.

{"Smiles Notation": "O=C(/C=C/c1ccc(Cl)c(Cl)c1)c1ccc([N+](=O)[O-])cc1", "Target Or Test System": "Amine oxidase [flavin-containing] B (Homo sapiens)", "pIC50": 8.66}
{"Smiles Notation": "O=C(/C=C/c1ccc(Cl)cc1)c1ccc([N+](=O)[O-])cc1", "Target Or Test System": "Amine oxidase [flavin-containing] B (Homo sapiens)", "pIC50": 8.00}
{"Smiles Notation": "O=C(/C=C/c1ccc(F)cc1)c1ccc([N+](=O)[O-])cc1", "Target Or Test System": "Amine oxidase [flavin-containing] B (Homo sapiens)", "pIC50": 7.32}
{"Smiles Notation": "Cc1ccccc1/C=C/C(=O)c1ccc([N+](=O)[O-])cc1", "Target Or Test System": "Amine oxidase [flavin-containing] B (Homo sapiens)", "pIC50": 6.92}
{"Smiles Notation": "O=C(/C=C/c1ccc2ccccc2c1)c1ccc([N+](=O)[O-])cc1", "Target Or Test System": "Amine oxidase [flavin-containing] B (Homo sapiens)", "pIC50": 7.68}

Inquiry: # lookup: pIC50 of `Cc1ccc(/C=C/C(=O)c2ccc([N+](=O)[O-])cc2)cc1`
Reply text: 7.89

Inquiry: Item under review: `COc1ccc(/C=C/C(=O)c2ccc([N+](=O)[O-])cc2)cc1` . Reported pIC50?
Reply text: 7.03

###

# Species: Homo sapiens
# Procedure Text: Selectivity index, ratio of IC50 for inhibition of recombinant human MAO-A to IC50 for inhibition of recombinant human MAO-B
Recorded Ratio IC50 values for a group of compounds are listed next.
Please reply with the value in numeric form only.

Solved cases (4 shown):
{"Smiles Notation": "COc1ccc(/C=C/C(=O)c2ccc([N+](=O)[O-])cc2)cc1", "Ratio IC50": 290}
{"Smiles Notation": "Cc1ccc(/C=C/C(=O)c2ccc([N+](=O)[O-])cc2)cc1", "Ratio IC50": 210}
{"Smiles Notation": "O=C(/C=C/c1ccc(Cl)cc1)c1ccc([N+](=O)[O-])cc1", "Ratio IC50": 5200}
{"Smiles Notation": "O=C(/C=C/c1ccc2ccccc2c1)c1ccc([N+](=O)[O-])cc1", "Ratio IC50": 620}

Inquiry: Need Ratio IC50 of `Cc1ccccc1/C=C/C(=O)c1ccc([N+](=O)[O-])cc1` , thanks.
Reply text: 740

Inquiry: I have this compound here, `O=C(/C=C/c1ccc(Cl)c(Cl)c1)c1ccc([N+](=O)[O-])cc1` , and I need its recorded Ratio IC50.
Reply text: 27000

Inquiry: // Ratio IC50 lookup, key: `O=C(/C=C/c1ccc(F)cc1)c1ccc([N+](=O)[O-])cc1`
Reply text: 160
